B1: library; numbered along this chain (parent)
chain: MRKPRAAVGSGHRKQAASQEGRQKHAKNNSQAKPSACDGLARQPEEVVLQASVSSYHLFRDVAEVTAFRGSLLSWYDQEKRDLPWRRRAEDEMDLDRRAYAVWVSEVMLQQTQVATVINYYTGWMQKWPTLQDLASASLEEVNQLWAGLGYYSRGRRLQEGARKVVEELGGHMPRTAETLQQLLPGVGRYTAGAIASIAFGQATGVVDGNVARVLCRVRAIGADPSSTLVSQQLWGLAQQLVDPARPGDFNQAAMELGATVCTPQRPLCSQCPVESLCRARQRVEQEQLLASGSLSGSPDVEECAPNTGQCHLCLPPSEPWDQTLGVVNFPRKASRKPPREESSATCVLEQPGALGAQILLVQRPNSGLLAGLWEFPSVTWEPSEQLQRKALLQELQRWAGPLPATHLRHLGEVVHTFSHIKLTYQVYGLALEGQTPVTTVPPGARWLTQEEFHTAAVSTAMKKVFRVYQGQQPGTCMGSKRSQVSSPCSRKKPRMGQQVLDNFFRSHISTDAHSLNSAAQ

# Variants of: B1
# experiment: 8OG:A repair function score (normalized; synonymous = 0, nonsense = -1) (normalized log-likelihood score); higher = more repair activity (WT-like);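 also: cells sorted at 72 h after reporter transfection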
# condition.parameters: with 8OG:A DNA repair reporter (GFP) in HEK-293 MUTYH KO cells
Respond with 1 (yes) for 8OG:A repair function score values of -0.04 and above, 0 (no) for values below.

For this variant, is measured 8OG:A repair function score -0.04 or higher? F330R
0 (no)

Could you tell me if the measured 8OG:A repair function score of N366Y reaches -0.04 or more?
1 (yes)

API: above_or_equal(metric=8OG:A repair function score, cutoff=-0.04) for item R336I
0 (no)

Confirm if 8OG:A repair function score reported for the variant H420D is -0.04 or above.
0 (no)

Entry P443Q : is its 8OG:A repair function score no less than -0.04?
1 (yes)

Please indicate if the recorded 8OG:A repair function score for S231Q meets or exceeds -0.04.
0 (no)

Would you say Q521F shows 8OG:A repair function score at minimum -0.04?
1 (yes)

Reported 8OG:A repair function score at or above -0.04? N503L
1 (yes)

Kindly determine if 8OG:A repair function score recorded for V327H is above or exactly -0.04.
0 (no)

For this variant, is measured 8OG:A repair function score -0.04 or higher? E140W
0 (no)

Can P317C be said to have 8OG:A repair function score at or above -0.04?
1 (yes)

Is the recorded value of 8OG:A repair function score equal to or greater than -0.04 for this variant? H454V
1 (yes)

Hello, I need to know if L369A has measured 8OG:A repair function score not below -0.04. Thanks!
1 (yes)

Does the reported 8OG:A repair function score for R87L fall at or above the -0.04 mark?
0 (no)

# check: 8OG:A repair function score of G70P is greater than or equal to -0.04
0 (no)

Reported 8OG:A repair function score at or above -0.04? H454D
0 (no)

hey, is 8OG:A repair function score for this one >= -0.04? F466V
0 (no)

API: above_or_equal(metric=8OG:A repair function score, cutoff=-0.04) for item V53C
1 (yes)

Check if 8OG:A repair function score >= -0.04 (inclusive). Item: E342Q
1 (yes)

Is reported 8OG:A repair function score greater than or equal to -0.04 here: L158Q
0 (no)

Identify whether the reported 8OG:A repair function score of the following variant is -0.04 or greater: Q43F
1 (yes)

Threshold query (8OG:A repair function score >= -0.04) on S136M
1 (yes)
